# Tested System: human CD33 R291A (human, UniProt P20138 18-364)
# Sequence (P20138 18-364 R291A limits assumed): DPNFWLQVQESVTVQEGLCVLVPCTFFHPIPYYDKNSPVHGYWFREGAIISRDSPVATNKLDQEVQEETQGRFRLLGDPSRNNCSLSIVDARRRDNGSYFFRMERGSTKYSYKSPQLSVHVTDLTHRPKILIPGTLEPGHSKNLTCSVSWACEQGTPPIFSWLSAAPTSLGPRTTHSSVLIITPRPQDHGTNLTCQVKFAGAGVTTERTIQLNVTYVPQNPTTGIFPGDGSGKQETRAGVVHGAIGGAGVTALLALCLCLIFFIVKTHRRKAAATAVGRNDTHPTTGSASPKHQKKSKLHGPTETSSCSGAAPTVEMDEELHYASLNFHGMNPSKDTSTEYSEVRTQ
# Procedure Text: alanine scan, flow cytometry, HEK293-T;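 further: antibody binding to each alanine-substituted CD33 mutant expressed transiently in HEK293-T, read as fluorescence minus background, mean of duplicates, relative to wild-type CD33 set as 100%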
Readout Label: Mean % WT Binding (% WT binding)

{"Binder": "Refmab #4 (antibody, V domains shown, The alanine scan used IgG or Fab) VH: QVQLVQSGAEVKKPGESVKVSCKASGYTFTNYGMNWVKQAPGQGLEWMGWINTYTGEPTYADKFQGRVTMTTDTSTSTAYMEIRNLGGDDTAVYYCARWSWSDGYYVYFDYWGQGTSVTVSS VL: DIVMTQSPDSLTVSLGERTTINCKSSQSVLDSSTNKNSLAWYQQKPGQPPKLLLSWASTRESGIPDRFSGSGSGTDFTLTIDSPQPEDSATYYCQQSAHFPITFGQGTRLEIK", "Readout Label": "Mean % WT Binding", "Data Value": 102}

Data provenance is patent US20260242735A1.
